Cited source: ChEMBL document CHEMBL1133506

# IC50 listing for each entry below
- target-or-test-system: Platelet-derived growth factor receptor beta (Mus musculus, UniProt P05622)
- Sequence (P05622 whole entry): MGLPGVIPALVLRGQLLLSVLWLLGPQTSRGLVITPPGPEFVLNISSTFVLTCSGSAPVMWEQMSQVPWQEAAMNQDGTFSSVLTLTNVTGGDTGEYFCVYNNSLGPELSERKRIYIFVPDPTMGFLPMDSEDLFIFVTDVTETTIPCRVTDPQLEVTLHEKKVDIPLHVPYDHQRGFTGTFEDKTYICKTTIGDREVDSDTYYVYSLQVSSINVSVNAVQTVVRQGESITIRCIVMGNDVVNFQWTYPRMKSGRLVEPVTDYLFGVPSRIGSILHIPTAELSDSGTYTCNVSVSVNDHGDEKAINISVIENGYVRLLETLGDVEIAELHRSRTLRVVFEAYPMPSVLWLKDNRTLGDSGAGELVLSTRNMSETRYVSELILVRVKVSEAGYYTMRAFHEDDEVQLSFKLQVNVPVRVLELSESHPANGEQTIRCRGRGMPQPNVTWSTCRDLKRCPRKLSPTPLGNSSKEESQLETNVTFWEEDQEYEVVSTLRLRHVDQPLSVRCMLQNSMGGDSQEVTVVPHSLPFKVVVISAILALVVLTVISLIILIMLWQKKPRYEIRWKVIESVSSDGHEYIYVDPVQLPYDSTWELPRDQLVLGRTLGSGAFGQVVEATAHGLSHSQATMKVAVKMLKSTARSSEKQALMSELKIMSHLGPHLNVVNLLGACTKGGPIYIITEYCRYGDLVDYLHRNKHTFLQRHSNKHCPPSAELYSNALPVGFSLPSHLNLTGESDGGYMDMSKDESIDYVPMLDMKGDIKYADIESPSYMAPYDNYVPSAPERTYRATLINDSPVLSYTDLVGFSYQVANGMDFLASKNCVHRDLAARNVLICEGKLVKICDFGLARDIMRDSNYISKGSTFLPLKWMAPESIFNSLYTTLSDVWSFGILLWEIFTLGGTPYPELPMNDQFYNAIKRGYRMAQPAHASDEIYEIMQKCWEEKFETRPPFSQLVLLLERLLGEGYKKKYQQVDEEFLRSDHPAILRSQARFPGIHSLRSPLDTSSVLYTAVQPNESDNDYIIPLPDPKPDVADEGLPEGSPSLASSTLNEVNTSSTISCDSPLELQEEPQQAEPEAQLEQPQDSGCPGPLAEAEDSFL

Tell me measured IC50 for CC(C)(C)NC(=O)Nc1nc2cc(N)ncc2cc1-c1ccccc1 please.
2.6 µM

Consider now this further compound.
Tell me measured IC50 for CC(C)(C)NC(=O)Nc1nc2nc(N)ncc2cc1-c1c(Cl)cccc1Cl please.
1.1 µM

###

# pIC50 listing for each entry below
- Test system: HUVEC
- experiment-summary: Inhibition of in vitro cell Human umbilical vein endothelial (HUVEC) cell proliferation
Just so you know, pIC50 here is -log10 of the concentration in molar units; reply with that number alone.

See these solved cases before continuing.
Tell me measured pIC50 for COc1cc(OC)cc(-c2cc3cnc(NC(=O)NC(C)(C)C)cc3nc2NC(=O)NC(C)(C)C)c1 please.
7.77

Tell me measured pIC50 for COc1cc(OC)cc(-c2cc3cnc(NCCCN4CCOCC4)cc3nc2NC(=O)NC(C)(C)C)c1 please.
7.07

Tell me measured pIC50 for COc1cc(OC)cc(-c2cc3cnc(NC(=O)C(F)(F)F)cc3nc2N)c1 please.
5.31

Further cases:
Tell me measured pIC50 for COc1cc(OC)cc(-c2cc3cnc(NC(C)=O)cc3nc2NC(=O)NC(C)(C)C)c1 please.
8.40

Tell me measured pIC50 for CCNC(=O)Nc1nc2cc(N)ncc2cc1-c1cc(OC)cc(OC)c1 please.
6.77

Tell me measured pIC50 for COc1cc(OC)cc(-c2cc3cnc(N)cc3nc2N)c1 please.
6.09

Tell me measured pIC50 for COc1cc(OC)cc(-c2cc3cnc(N)cc3nc2NC(=O)NC(C)(C)C)c1 please.
8.26

Tell me measured pIC50 for COc1cc(OC)cc(-c2cc3cnc(N)nc3nc2NC(=O)NC(C)(C)C)c1 please.
6.24

###

- Tested on: Ovarian cancer cell line
- experiment-summary: Inhibition of human ovarian carcinoma (A90) FGF-R overexpressing cell proliferation
# IC50 listing for each entry below
Give the value, in units of µM, as a plain number.

See these solved cases before continuing.
Tell me measured IC50 for COc1cc(OC)cc(-c2cc3cnc(N)nc3nc2NC(=O)NC(C)(C)C)c1 please.
15

Tell me measured IC50 for COc1cc(OC)cc(-c2cc3cnc(NC(=O)NC(C)(C)C)cc3nc2NC(=O)NC(C)(C)C)c1 please.
11

Tell me measured IC50 for COc1cc(OC)cc(-c2cc3cnc(NC(=O)C(F)(F)F)cc3nc2N)c1 please.
17

Tell me measured IC50 for COc1cc(OC)cc(-c2cc3cnc(NC(C)=O)cc3nc2NC(=O)NC(C)(C)C)c1 please.
12

Tell me measured IC50 for COc1cc(OC)cc(-c2cc3cnc(NCCCN4CCOCC4)cc3nc2NC(=O)NC(C)(C)C)c1 please.
0.92

Further cases:
Tell me measured IC50 for CCNC(=O)Nc1nc2cc(N)ncc2cc1-c1cc(OC)cc(OC)c1 please.
9.3

Tell me measured IC50 for COc1cc(OC)cc(-c2cc3cnc(N)cc3nc2NC(=O)NC(C)(C)C)c1 please.
1.2

Tell me measured IC50 for COc1cc(OC)cc(-c2cc3cnc(N)cc3nc2N)c1 please.
17

###

- Tested on: HUVEC
- experiment-summary: Inhibition of microcapillary growth in HUVEC cells
- assay-context: Homo sapiens
measurement-name: pIC50
Just so you know, pIC50 here is -log10 of the concentration in molar units; reply with that number alone.

Tell me measured pIC50 for COc1cc(OC)cc(-c2cc3cnc(NCCCN4CCOCC4)cc3nc2NC(=O)NC(C)(C)C)c1 please.
9.00
